Target: T1, CRF2R; also: reference of the scale not given here
T1 sequence (Q13324 whole entry, species assumed, looked up): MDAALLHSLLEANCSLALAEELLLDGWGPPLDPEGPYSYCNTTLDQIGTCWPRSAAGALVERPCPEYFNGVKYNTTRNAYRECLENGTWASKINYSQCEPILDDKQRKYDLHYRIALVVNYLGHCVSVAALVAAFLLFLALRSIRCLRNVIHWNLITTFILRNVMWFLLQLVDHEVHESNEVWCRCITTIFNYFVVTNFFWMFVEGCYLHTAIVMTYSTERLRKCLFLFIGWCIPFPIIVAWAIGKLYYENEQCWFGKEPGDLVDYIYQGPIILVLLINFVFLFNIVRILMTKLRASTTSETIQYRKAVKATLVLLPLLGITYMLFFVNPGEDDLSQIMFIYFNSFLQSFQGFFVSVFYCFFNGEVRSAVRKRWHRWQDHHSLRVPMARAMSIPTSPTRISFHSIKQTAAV
Test: cell-based or functional assay
List of CRF2R Emax % values.
Write the answer as a number in %, unit excluded.

{"binder": "ZGPPISIDLPFQLLRILIEIEKQEKEKQQAANNRLLLDTI (not fully specified; C-terminal amide) [SEQ ID NO 255]", "CRF2R Emax % [%]": 100}
{"binder": "ZGPPISIDLPLHLLRKMIEIEKQEKEKQQATTNARLLDRV (C-terminal amide) [SEQ ID NO 239]", "CRF2R Emax % [%]": 100}

Consider the additional binder presented here.
Asked: Item ZGPPISIDLPLQLLRKMIEIEKQEKEKQQAANNALLLDTI (not fully specified; C-terminal amide) [SEQ ID NO 248] : provide CRF2R Emax %
Given back: 98

Where do these numbers come from? They come from patent US20030148958A1.
